PROCEDURE_SUMMARY: chemical genetic growth profiling, strain panel (AID 1159580);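 note: tested at 20 µM; growth read once vehicle control cultures reached saturation at 30 °C; 1 = growth at the plate median or of vehicle wells; lower values mean less growth of the strain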
CONDITION_PARAMETERS: S. cerevisiae deletion strains, growth OD, locus YLR320W, strain mms22, hits give low values
Hit rate of the full screen: of about 5,500 compounds, about 2,000 (36%) were called active. Not shown: some 18% with an inconclusive outcome. Some of the results follow.
OBSERVED_PROPERTY: normalized growth
Reply briefly: the number, and no unit.

NC(=O)N/N=C\c1ccc([N+](=O)[O-])o1 = 0.98

normalized growth for CCOC(=O)C(C)(N)Cc1ccc(O)c(O)c1 (stereo unspecified) is 0.988

Value of measured normalized growth for the entry "O=C(O)c1cc(=O)c(O)c2c(O)c(O)c(O)cc2c1" : 0.56

Measured normalized growth, "C=CCc1cc(OC)c2c(c1OC)OCO2" : 0.666

----------
PROCEDURE_SUMMARY: chemical genetic growth profiling, strain panel (AID 1159580);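 note: tested at 20 µM; growth read once vehicle control cultures reached saturation at 30 °C; 1 = growth at the plate median or of vehicle wells; lower values mean less growth of the strain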
CONDITION_PARAMETERS: S. cerevisiae deletion strains, growth OD, locus YNL322C, strain KRE1, hits give low values
The whole screen tested about 5,500 compounds, of which about 2,000 (36%) were called active. About 18% were inconclusive and are not listed. The list shows a part of the results.
Catalogue of normalized growth values
The reply should be a number, written without any unit.

As a guide, the following entries are already answered.
O=C(CCN1CCOCC1)c1ccc2c(c1)OCCO2 = 0.968
CCn1cc(C(=O)O)c(=O)c2cnc(N3CCCC3)nc21 = 0.999
CC1=C(/C=C/C(C)=C/C=C/C(C)=C/C(=O)Nc2ccc(O)cc2)C(C)(C)CCC1 = 0.993
CC(C)(C)OC(=O)N1CCN(Cc2ccccc2)CC1 = 1
C[C@@H]1C[C@@H]([C@H](O)CC2CC(=O)NC(=O)C2)C(=O)[C@@H](C)C1 = 0.0498

Please fill in: normalized growth reported for Cc1cccc(CN2CCN(C(c3ccccc3)c3ccc(Cl)cc3)CC2)c1 (centres undefined) = 0.972

Notebook: "COc1cc(N=Cc2ccc3c(c2)OCO3)c(OC)cc1Cl" , normalized growth read as 1

According to the records, this molecule "COC(=O)[C@@H](N)CCCN=C(N)N[N+](=O)[O-]" displays normalized growth of 1.02

"C=CCN1CCc2cccc3c2[C@H]1Cc1ccc(O)c(O)c1-3" has a reported normalized growth of 0.152

----------
PROCEDURE_SUMMARY: chemical genetic growth profiling, strain panel (AID 1159580);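 note: tested at 20 µM; growth read once vehicle control cultures reached saturation at 30 °C; 1 = growth at the plate median or of vehicle wells; lower values mean less growth of the strain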
CONDITION_PARAMETERS: S. cerevisiae deletion strains, growth OD, locus YPR135W, strain CTF4
Screen size: about 5,500 compounds; about 2,000 (36%) were called active. Inconclusive results (about 18%) are left out. No stated cut-off is given here; in the data, active means normalized growth mostly below about 0.91 (no sharp cut-off); inconclusive means no clear call, values can overlap the other calls; inactive means mostly above about 0.92. The list shows a part of the results.
Pick one: active, inactive

CCOC(=O)CC(=O)Nc1scc(C)c1C(=O)OCC = inactive

Pending compound:
What outcome does the record of this test show for "ON(Cc1c(F)cccc1Cl)Cc1c(F)cccc1Cl" ?
inactive

----------
PROCEDURE_SUMMARY: chemical genetic growth profiling, strain panel (AID 1159580);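 note: tested at 20 µM; growth read once vehicle control cultures reached saturation at 30 °C; 1 = growth at the plate median or of vehicle wells; lower values mean less growth of the strain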
CONDITION_PARAMETERS: S. cerevisiae deletion strains, growth OD, locus YPR141C, strain kar3, hits give low values
Out of some 5,500 compounds screened, about 2,000 (36%) were called active. Not shown: some 18% with an inconclusive outcome. Some of the results follow.
# normalized growth per record follows
Simply state the number, no unit and no words.

C[C@@H]1CC2C3CCC4=CC(=O)C=C[C@]4(C)[C@@]3(F)[C@@H](O)C[C@]2(C)[C@@]1(O)C(=O)COP(=O)(O)O (stereo partly drawn) = 0.994
NC(=O)c1cc[n+](CC2=C(C(=O)O)N3C(=O)C(NC(=O)C(c4ccccc4)S(=O)(=O)[O-])C3SC2)cc1 (stereo not drawn) = 0.98
Nc1ccc(S(=O)(=O)Nc2nccs2)cc1 = 0.996

Record summary for "CO[C@@H]1[C@@H](O[C@@H]2O[C@H](C)[C@@H](O[C@H]3C[C@@](C)(O)[C@H](O)[C@H](C)O3)[C@H](N(C)C)[C@H]2O)[C@@H](CC=O)C[C@@H](C)[C@@H](O[C@H]2CC[C@H](N(C)C)[C@@H](C)O2)/C=C/C=C/C[C@H](C)OC(=O)C[C@H]1O" : reported normalized growth = 1.02
